Experiment: logP, n-octanol/water partition coefficient by reversed phase HPLC
Assay type: physicochemical
Details: B isomer (possible geometric isomer), reversed phase HPLC using H2O/CH3CN
Quantity Measured: logP (B isomer)
Lab note: write the figure by itself, no unit.

In the examples that follow, each entry is paired with its recorded logP (B isomer).
CCCCON=C(C)C(C)Oc1ccc(-c2ccc(C3COC(c4c(F)cccc4F)=N3)cc2)cc1Cl (mixture of isomers); 6.22
CCCCON=C(C)C(C)Oc1ccc(-c2ccc(C3COC(c4ccccc4Cl)=N3)cc2)cc1Cl (mixture of isomers); 6.67
CCCCON=C(C)C(C)Oc1ccc(-c2ccc(C3COC(c4c(F)cccc4Cl)=N3)cc2)cc1 (mixture of isomers); 6.09
CCCCON=C(C)C(C)Oc1ccc(-c2ccc(C3COC(c4c(F)cccc4F)=N3)cc2)cc1 (mixture of isomers); 5.80
CCON=C(COc1ccc(-c2ccc(C3COC(c4c(F)cccc4F)=N3)cc2)cc1)C(C)(C)C=C(Cl)Cl (mixture of isomers); 6.37
CON=C(C)C(C)Oc1ccc(-c2ccc(C3COC(c4ccccc4Br)=N3)cc2)cc1 (mixture of isomers); 5.18

Entry CC(=NOCC(C)C)C(C)Oc1ccc(-c2ccc(C3COC(c4c(F)cccc4F)=N3)cc2)cc1 (mixture of isomers) : reported logP (B isomer) = ? 5.79

Entry CCCCON=C(C)COc1ccc(-c2ccc(C3COC(c4c(F)cccc4F)=N3)cc2)cc1 (mixture of isomers) : reported logP (B isomer) = ? 5.51

Entry CC(COc1ccc(-c2ccc(C3COC(c4c(F)cccc4Cl)=N3)cc2)cc1)=NOCC(C)C (mixture of isomers) : reported logP (B isomer) = ? 5.76

Entry CCC(C)ON=C(C)COc1ccc(-c2ccc(C3COC(c4c(F)cccc4F)=N3)cc2)cc1 (mixture of isomers) : reported logP (B isomer) = ? 5.54

* * *

Quick reference: logP (A isomer) of the listed items.
Assay: logP, n-octanol/water partition coefficient by reversed phase HPLC
Assay type: physicochemical
Conditions: A isomer (possible geometric isomer), reversed phase HPLC using H2O/CH3CN
Marks after values point to notes of the source that are not given here.

CCON=C(COc1ccc(-c2ccc(C3COC(c4c(F)cccc4F)=N3)cc2)cc1)C(C)(C)C=C(Cl)Cl (mixture of isomers); 6.48
CON=C(C)C(C)Oc1ccc(-c2ccc(C3COC(c4ccccc4Br)=N3)cc2)cc1 (mixture of isomers); 5.08
CCC(C)ON=C(C)COc1ccc(-c2ccc(C3COC(c4c(F)cccc4F)=N3)cc2)cc1 (mixture of isomers); 5.61
CCCCON=C(C)COc1ccc(-c2ccc(C3COC(c4c(F)cccc4F)=N3)cc2)cc1 (mixture of isomers); 5.58
CC(COc1ccc(-c2ccc(C3COC(c4c(F)cccc4Cl)=N3)cc2)cc1)=NOCC(C)C (mixture of isomers); 5.85

# context switch: different compound, same logP (A isomer)
Entry CCON=CCOc1ccc(-c2ccc(C3COC(c4c(F)cccc4F)=N3)cc2)cc1 (mixture of isomers) : reported logP (A isomer) = ? 4.35 (A isomer)*

* * *

Assay: logP, n-octanol/water partition coefficient by reversed phase HPLC
Type: physicochemical
Settings: reversed phase HPLC using H2O/CH3CN
Quick reference: logP of the listed items.
Lab note: write the figure by itself, no unit.

CON=CCOc1ccc(-c2ccc(C3COC(c4c(F)cccc4F)=N3)cc2)cc1Cl (centres unmarked); 4.33
CCON=CCOc1ccc(-c2ccc(C3COC(c4ccccc4Cl)=N3)cc2)cc1Cl (centres unmarked); 5.08
CCON=CCOc1ccc(-c2ccc(C3COC(c4c(F)cccc4F)=N3)cc2)cc1Cl (centres unmarked); 4.71
CON=CCOc1ccc(-c2ccc(C3COC(c4c(F)cccc4Cl)=N3)cc2)cc1 (centres unmarked); 4.27
Cc1cc(-c2ccc(C3COC(c4c(F)cccc4F)=N3)cc2)ccc1OCC(F)(F)F (centres unmarked); 4.80

Entry CC(C)(C=O)Oc1ccc(-c2ccc(C3COC(c4c(F)cccc4F)=N3)cc2)cc1 (centres unmarked) : reported logP = ? 4.08

Entry CCON=CCOc1ccc(-c2ccc(C3COC(c4c(F)cccc4Cl)=N3)cc2)cc1 (centres unmarked) : reported logP = ? 4.65

Entry ClC1(Cl)CC1COc1ccc(-c2ccc(C3COC(c4ccccc4I)=N3)cc2)cc1 (centres unmarked) : reported logP = ? 5.43

Entry CC(=O)C(C)Oc1ccc(-c2ccc(C3COC(c4ccccc4Br)=N3)cc2)cc1 (centres unmarked) : reported logP = ? 4.13

Entry CC(C)Oc1ccc(-c2ccc(C3COC(c4ccccc4F)=N3)cc2)cc1 (centres unmarked) : reported logP = ? 4.65

Entry CON=CCOc1ccc(-c2ccc(C3COC(c4ccccc4Cl)=N3)cc2)cc1Cl (centres unmarked) : reported logP = ? 4.72

* * *

Test: logP, n-octanol/water partition coefficient by reversed phase HPLC
Assay type: physicochemical
Details: B isomer (possible geometric isomer), reversed phase HPLC using H2O/CH3CN
Marks after values point to notes of the source that are not given here.
Quantity Measured: logP (B isomer)

CCON=CCOc1ccc(-c2ccc(C3COC(c4c(F)cccc4F)=N3)cc2)cc1 (mixture of isomers); 4.53 (B isomer)*
CCC(C)ON=C(C)COc1ccc(-c2ccc(C3COC(c4c(F)cccc4Cl)=N3)cc2)cc1 (mixture of isomers); 5.81 (B isomer)*

Entry CON=CCOc1ccc(-c2ccc(C3COC(c4c(F)cccc4F)=N3)cc2)cc1 (mixture of isomers) : reported logP (B isomer) = ? 4.14 (B isomer)*

* * *

Assay: logP, n-octanol/water partition coefficient by reversed phase HPLC
Format: physicochemical
Conditions: reversed phase HPLC using H2O/CH3CN
Quantity Measured: logP
Lab note: write the figure by itself, no unit.

In the examples that follow, each entry is paired with its recorded logP.
CON=CC(C)(C)Oc1ccc(-c2ccc(C3COC(c4c(F)cccc4F)=N3)cc2)cc1 (stereo not drawn); 4.62
CC(=O)C(C)Oc1ccc(-c2ccc(C3COC(c4ccccc4F)=N3)cc2)cc1 (stereo not drawn); 3.79
C#CC(C)Oc1ccc(-c2ccc(C3COC(c4ccccc4Cl)=N3)cc2)cc1 (stereo not drawn); 4.49
Cc1cc(-c2ccc(C3COC(c4c(F)cccc4OCC(F)(F)F)=N3)cc2)ccc1OCC(F)(F)F (stereo not drawn); 4.91

Entry C#CC(C)Oc1ccc(-c2ccc(C3COC(c4c(F)cccc4F)=N3)cc2)cc1 (stereo not drawn) : reported logP = ? 4.15

Entry CC(=NOC(C)C)C(C)(C)Oc1ccc(-c2ccc(C3COC(c4c(F)cccc4Cl)=N3)cc2)cc1 (stereo not drawn) : reported logP = ? 6.30

* * *

Experiment: logP, n-octanol/water partition coefficient by reversed phase HPLC
Format: physicochemical
Conditions: reversed phase HPLC using H2O/CH3CN
Quick reference: logP of the listed items.
Lab note: write the figure by itself, no unit.

CC(C)COc1ccc(-c2ccc(C3COC(c4ccccc4F)=N3)cc2)cc1 (stereo not drawn) [Example 108]; 5.34
CC(O)C(C)Oc1ccc(-c2ccc(C3COC(c4ccccc4Br)=N3)cc2)cc1 (stereo not drawn) [Example 91]; 3.74

# context switch: different molecule, same logP
Entry CCON=CC(C)(C)Oc1ccc(-c2ccc(C3COC(c4c(F)cccc4F)=N3)cc2)cc1 (stereo not drawn) [Example 53] : reported logP = ? 5.00
